Target: α4β1δ GABAA receptor (Homo sapiens, UniProt P18505+P48169, P18505:I289Q)
Sequence (P48169 36-554): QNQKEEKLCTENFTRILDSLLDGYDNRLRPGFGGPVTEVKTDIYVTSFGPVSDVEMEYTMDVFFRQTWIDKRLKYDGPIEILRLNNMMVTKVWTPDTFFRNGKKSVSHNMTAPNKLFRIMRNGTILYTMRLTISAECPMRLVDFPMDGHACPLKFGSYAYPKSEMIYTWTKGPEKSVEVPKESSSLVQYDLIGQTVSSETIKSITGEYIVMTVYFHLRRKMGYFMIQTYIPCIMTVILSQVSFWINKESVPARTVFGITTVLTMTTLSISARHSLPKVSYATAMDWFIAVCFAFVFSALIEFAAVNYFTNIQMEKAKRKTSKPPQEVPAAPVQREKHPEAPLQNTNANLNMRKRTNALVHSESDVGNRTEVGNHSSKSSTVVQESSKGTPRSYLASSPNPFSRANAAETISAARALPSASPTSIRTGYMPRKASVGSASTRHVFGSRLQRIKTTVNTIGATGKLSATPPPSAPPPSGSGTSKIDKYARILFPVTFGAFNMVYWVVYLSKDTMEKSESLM
Sequence (P18505 26-474 I289Q): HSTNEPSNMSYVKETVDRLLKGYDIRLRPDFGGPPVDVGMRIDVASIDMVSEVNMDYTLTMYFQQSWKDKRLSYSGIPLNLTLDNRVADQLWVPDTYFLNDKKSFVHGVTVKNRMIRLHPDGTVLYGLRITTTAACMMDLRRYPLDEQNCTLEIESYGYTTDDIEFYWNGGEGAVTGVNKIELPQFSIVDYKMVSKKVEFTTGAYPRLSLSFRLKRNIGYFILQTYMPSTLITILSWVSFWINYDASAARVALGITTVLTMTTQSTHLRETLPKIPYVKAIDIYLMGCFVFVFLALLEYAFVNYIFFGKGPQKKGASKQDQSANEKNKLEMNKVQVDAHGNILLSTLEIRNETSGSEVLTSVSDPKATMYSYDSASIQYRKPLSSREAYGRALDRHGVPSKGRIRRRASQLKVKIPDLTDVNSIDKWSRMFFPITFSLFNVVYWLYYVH
Sequence (O14764 25-452 partner): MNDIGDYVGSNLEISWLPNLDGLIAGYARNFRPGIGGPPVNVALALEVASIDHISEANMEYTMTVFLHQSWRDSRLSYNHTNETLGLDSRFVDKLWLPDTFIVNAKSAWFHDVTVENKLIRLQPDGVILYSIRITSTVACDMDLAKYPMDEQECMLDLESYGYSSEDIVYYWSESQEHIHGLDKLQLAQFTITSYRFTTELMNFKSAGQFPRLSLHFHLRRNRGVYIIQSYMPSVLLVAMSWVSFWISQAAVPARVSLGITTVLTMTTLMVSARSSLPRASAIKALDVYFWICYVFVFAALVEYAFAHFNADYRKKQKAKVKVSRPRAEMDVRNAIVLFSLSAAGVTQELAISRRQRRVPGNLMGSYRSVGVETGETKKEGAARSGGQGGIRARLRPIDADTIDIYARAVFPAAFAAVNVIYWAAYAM
Experiment: FLIPR membrane potential
Assay type: cell-based
pEC50: −log10 of the molar value.
Assay Readout: pEC50

- Molecule: "CCOC(=O)c1cncn1[C@H](C)c1ccccc1 [etomidate]"
  Target: "α4β1δ GABAA receptor (Homo sapiens, UniProt P18505+P48169, P18505:I289Q)"
  Value Observed: 5.03

====

Target: α4β1δ GABAA receptor (Homo sapiens, UniProt P18505+P48169)
Sequence (P48169 36-554): as the sequence (P48169 36-554) above
Sequence (P18505 26-474): as the sequence (P18505 26-474 I289Q) above, with Q264I counted along it
Sequence (O14764 25-452 partner): as the sequence (O14764 25-452 partner) above
Experiment: FLIPR membrane potential
Format: cell-based
pEC50: −log10 of the molar value.

- Compound: "CCOC(=O)c1cncn1[C@H](C)c1ccccc1 [etomidate]"
  Target: "α4β1δ GABAA receptor (Homo sapiens, UniProt P18505+P48169)"
  pEC50: 5.11

Where do these numbers come from? They come from paper doi:10.1101/2021.01.21.427670v1.
